# TESTED_TARGET: H1975 (EGFR L858/T790M) (Homo sapiens, UniProt P00533, L858R/T790M)
# Sequence (P00533 25-1210 T790M/L858R): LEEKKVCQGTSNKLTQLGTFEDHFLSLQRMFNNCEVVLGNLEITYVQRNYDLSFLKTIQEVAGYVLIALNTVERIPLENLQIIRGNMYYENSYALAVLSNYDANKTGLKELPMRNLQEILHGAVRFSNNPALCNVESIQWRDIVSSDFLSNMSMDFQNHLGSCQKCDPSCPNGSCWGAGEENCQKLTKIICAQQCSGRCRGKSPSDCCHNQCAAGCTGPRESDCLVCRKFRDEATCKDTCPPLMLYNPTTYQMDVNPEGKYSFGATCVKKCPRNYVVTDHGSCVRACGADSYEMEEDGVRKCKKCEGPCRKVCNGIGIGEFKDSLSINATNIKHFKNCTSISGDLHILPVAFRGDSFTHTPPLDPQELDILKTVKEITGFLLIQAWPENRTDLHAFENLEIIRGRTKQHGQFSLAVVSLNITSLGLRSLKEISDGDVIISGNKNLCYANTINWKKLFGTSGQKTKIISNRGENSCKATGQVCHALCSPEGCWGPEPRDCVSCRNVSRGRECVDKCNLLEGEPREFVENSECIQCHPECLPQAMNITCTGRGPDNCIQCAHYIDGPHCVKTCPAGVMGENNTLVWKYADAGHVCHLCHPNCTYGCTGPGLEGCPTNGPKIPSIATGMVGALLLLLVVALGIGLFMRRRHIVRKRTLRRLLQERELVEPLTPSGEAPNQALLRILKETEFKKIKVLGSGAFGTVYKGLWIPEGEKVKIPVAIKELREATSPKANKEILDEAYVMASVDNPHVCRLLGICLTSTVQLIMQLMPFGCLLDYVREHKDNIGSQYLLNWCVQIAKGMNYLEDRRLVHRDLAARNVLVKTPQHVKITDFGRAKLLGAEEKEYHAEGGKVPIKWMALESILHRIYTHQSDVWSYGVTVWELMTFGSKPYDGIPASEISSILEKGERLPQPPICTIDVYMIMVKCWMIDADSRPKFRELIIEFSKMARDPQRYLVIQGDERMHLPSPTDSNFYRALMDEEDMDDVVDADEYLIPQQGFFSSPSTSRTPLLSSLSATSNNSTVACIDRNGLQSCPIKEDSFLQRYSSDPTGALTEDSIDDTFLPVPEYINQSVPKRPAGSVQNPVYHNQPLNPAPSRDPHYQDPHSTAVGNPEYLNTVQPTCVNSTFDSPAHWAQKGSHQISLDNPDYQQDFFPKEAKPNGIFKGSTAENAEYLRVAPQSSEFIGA
# RUN_DESCRIPTION: EGFR target modulation in H1975 cell line (phospho-EGFR Y1173 ELISA)
Could you please mark met for values of IC50 below 20 nM and not met for values at or above it?

[ask] Is 20 nM strictly greater than the compound's reported IC50? compound: `C=CC(=O)N1CCCC[C@@H](n2c(NC(=O)c3cc(C)nc(C)c3)nc3cc(CN4CC[C@H](OC)C4)cc(C)c32)C1`
[reply] met

[ask] Is 20 nM strictly greater than the compound's reported IC50? compound: `COc1cncc(C(=O)Nc2nc3cccc(C)c3n2[C@@H]2CCCCN(C(=O)/C=C/CN(C)C)C2)c1`
[reply] met

[ask] Is 20 nM strictly greater than the compound's reported IC50? compound: C=CC(=O)N1CCNCC(n2c(NC(=O)c3ccnc(C)c3)nc3cccc(Cl)c32)C1 (centres unmarked)
[reply] not met

[ask] Is 20 nM strictly greater than the compound's reported IC50? compound: `Cc1cccc2nc(NC(=O)c3ccnc(OC(F)F)c3)n([C@@H]3CCCCN(C(=O)/C=C/CN(C)C)C3)c12`
[reply] met

[ask] Is 20 nM strictly greater than the compound's reported IC50? compound: `Cc1cc(C(=O)Nc2nc3cccc(Cl)c3n2[C@@H]2CCCCN(C(=O)/C=C/CN3CCCC3)C2)ccn1`
[reply] met

[ask] Is 20 nM strictly greater than the compound's reported IC50? compound: `Cc1cc(C(=O)Nc2nc3cccc(Cl)c3n2[C@H]2CCCCN(C(=O)/C=C/CN(C)C)C2)cc(C)n1`
[reply] not met

[ask] Is 20 nM strictly greater than the compound's reported IC50? compound: `C/C=C/C(=O)N1CCCC[C@@H](n2c(NC(=O)c3cc(C)nc(C)c3)nc3cc(CN4CC[C@H](OC)C4)ccc32)C1`
[reply] not met

[ask] Is 20 nM strictly greater than the compound's reported IC50? compound: `C/C=C/C(=O)N1CCCC[C@@H](n2c(NC(=O)c3ccnc(C)c3)nc3cc(CN4CC[C@@H](OC)C4)cc(C)c32)C1`
[reply] not met

[ask] Is 20 nM strictly greater than the compound's reported IC50? compound: `Cc1cc(C(=O)Nc2nc3cccc(C)c3n2[C@@H]2CCCCN(C(=O)/C=C/CN(C)C)C2)cc(C)n1`
[reply] met

[ask] Is 20 nM strictly greater than the compound's reported IC50? compound: `C=CC(=O)N1CCCC[C@@H](n2c(NC(=O)c3ccnc(C)c3)nc3cc(CN4CC(OC)C4)cc(C)c32)C1`
[reply] met

[ask] Is 20 nM strictly greater than the compound's reported IC50? compound: `Cc1cc(C(=O)Nc2nc3cccc(Cl)c3n2[C@@H]2CCCCN(C(=O)/C=C/CN(C)C(=O)OC(C)(C)C)C2)ccn1`
[reply] not met

[ask] Is 20 nM strictly greater than the compound's reported IC50? compound: `Cc1cc(C(=O)Nc2nc3cccc(C(F)(F)F)c3n2[C@@H]2CCCCN(C(=O)/C=C/CN(C)C)C2)ccn1`
[reply] met

[ask] Is 20 nM strictly greater than the compound's reported IC50? compound: Cc1cc(C(=O)Nc2nc3cccc(Cl)c3n2C2CCCCN(C(=O)/C=C/CN(C)C)C2)cc(P(C)(C)=O)n1 (single isomer, unassigned) [Example 21-9A]
[reply] not met

[ask] Is 20 nM strictly greater than the compound's reported IC50? compound: `Cc1cc(C(=O)Nc2nc3cccc(Cl)c3n2[C@@H]2CCCCN(C(=O)/C=C/CN3CC(F)C3)C2)ccn1`
[reply] met

[ask] Is 20 nM strictly greater than the compound's reported IC50? compound: `C=CC(=O)N1CCC[C@@H](n2c(NC(=O)c3cccc(C(F)(F)F)c3)nc3cccc(C)c32)C1`
[reply] met

[ask] Is 20 nM strictly greater than the compound's reported IC50? compound: `C=CC(=O)N1CCC[C@@H](n2c(NC(=O)c3cccc(C(F)(F)F)c3)nc3cc(CN(C)C(C)=O)ccc32)C1`
[reply] met

[ask] Is 20 nM strictly greater than the compound's reported IC50? compound: `C=CC(=O)N1CCCC[C@@H](n2c(NC(=O)c3cc(C)nc(C)c3)nc3cc(CN4CC[C@@H](OC)C4)cc(C)c32)C1`
[reply] met

[ask] Is 20 nM strictly greater than the compound's reported IC50? compound: Cc1cccc2nc(NC(=O)c3cccc(C#N)c3)n(C3CCCCN(C(=O)/C=C/CN(C)C)C3)c12 (centres unmarked)
[reply] met

[ask] Is 20 nM strictly greater than the compound's reported IC50? compound: `C=CC(=O)N1CCC[C@@H](n2c(NC(=O)c3cccc(C(F)(F)F)c3)nc3cc(COCCOC)ccc32)C1`
[reply] not met

[ask] Is 20 nM strictly greater than the compound's reported IC50? compound: `CNC/C=C/C(=O)N1CCCC[C@@H](n2c(NC(=O)c3ccnc(C)c3)nc3cccc(Cl)c32)C1`
[reply] met

[ask] Is 20 nM strictly greater than the compound's reported IC50? compound: `C=CC(=O)N1CCCC[C@@H](n2c(NC(=O)c3ccccc3)nc3cccc(CN(C)C)c32)C1`
[reply] met

[ask] Is 20 nM strictly greater than the compound's reported IC50? compound: Cc1cc(C(=O)Nc2nc3cccc(Cl)c3n2C2CCCCN(C(=O)/C=C/CN(C)C)C2)cc(P(C)(C)=O)n1 (single isomer, unassigned) [Example 21-9B]
[reply] not met

[ask] Is 20 nM strictly greater than the compound's reported IC50? compound: `Cc1cc(C(=O)Nc2nc3cccc(Cl)c3n2[C@@H]2CCCCN(C(=O)/C=C/CN(C)C)C2)cc(C)n1`
[reply] met
